- tested_on: T1, TNFR1 (Homo sapiens, UniProt P19438)
- T1 chain: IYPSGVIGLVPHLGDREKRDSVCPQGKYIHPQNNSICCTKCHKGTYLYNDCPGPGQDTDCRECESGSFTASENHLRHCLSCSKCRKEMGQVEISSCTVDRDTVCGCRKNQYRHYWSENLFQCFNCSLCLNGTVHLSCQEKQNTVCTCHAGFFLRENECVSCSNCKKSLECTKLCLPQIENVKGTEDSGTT
- method: yeast display SC50
apparent Kd (screen) for assorted binders
parameter: apparent Kd (screen) (pM)

- binder: "E25S (designed binder) MTLQELLREEALRRAEAEAFRYALSLLAEKFPEQKEYLLDLAEEIESQIRSLSGVDVEDVRKFLDKEWAWVKELLAEHPAELAEVEAARAARLAELRAEVEAKVAA"
  endpoint_unit: "pM"
  endpoint_result: 1050
- binder: "Y22L (designed binder) MTLQELLREEALRRAEAEAFRLALELLAEKFPEQKEYLLDLAEEIESQIRSLSGVDVEDVRKFLDKEWAWVKELLAEHPAELAEVEAARAARLAELRAEVEAKVAA"
  endpoint_unit: "pM"
  endpoint_result: 718
- binder: "D40F (designed binder) MTLQELLREEALRRAEAEAFRYALELLAEKFPEQKEYLLFLAEEIESQIRSLSGVDVEDVRKFLDKEWAWVKELLAEHPAELAEVEAARAARLAELRAEVEAKVAA"
  endpoint_unit: "pM"
  endpoint_result: 18300
- binder: "E46Q (designed binder) MTLQELLREEALRRAEAEAFRYALELLAEKFPEQKEYLLDLAEEIQSQIRSLSGVDVEDVRKFLDKEWAWVKELLAEHPAELAEVEAARAARLAELRAEVEAKVAA"
  endpoint_unit: "pM"
  endpoint_result: 490
